Tested on: FLK-1 receptor
Experiment: FLK-1 Assay (cellular/catalytic ELISA, VEGF-stimulated phosphotyrosine)
Assay type: cell-based
Set-up: concentration or dose not given beside the values
Details: protocol P.110
property-measured: Flk Kinase % Inhibition (P.110) (%)
Write it as a number; the unit % goes unstated.

Need Flk Kinase % Inhibition (P.110), item O=C1Nc2ccc(S(=O)(=O)Nc3ccc(C(F)(F)F)cc3)cc2C1=Cc1cc(O)c(O)c(O)c1 [10739/E07]
10.0

Same thing, different compound: Cc1c(Br)cc(Br)c2c1C(=Cc1ccnc3ccccc13)C(=O)N2 [10740/H03]
−9.7

Same thing, different compound: Cc1[nH]c2ccccc2c1C=C1C(=O)Nc2ccc(Br)c(C)c21 [10740/C08]
4.6

Same thing, different compound: O=C1Nc2ccc(CCCl)cc2C1=Cc1ccc(CO)o1 [10739/G11]
9.8

Same thing, different compound: COc1ccccc1C=C1C(=O)Nc2c(Br)cc(Br)cc21 [10738/A09]
−9.8

Same thing, different compound: Cc1c(Br)cc(Br)c2c1C(=Cc1ccoc1)C(=O)N2 [10739/H10]
15.0

Same thing, different compound: O=C1Nc2ccc(CCCl)cc2C1=Cc1cc(O)ccc1[N+](=O)[O-] [10738/G05]
4.0

Same thing, different compound: COc1cccc(C=C2C(=O)Nc3c(Br)cc(Br)c(C)c32)c1 [10736/H10]
2.1

Same thing, different compound: Cc1c(Br)cc(Br)c2c1C(=Cc1cc(O)cc(O)c1)C(=O)N2 [10738/H07]
−17.4

Same thing, different compound: CCCOc1ccc(C=C2C(=O)Nc3ccc(S(=O)(=O)NC)cc32)cc1 [10738/D11]
10.4

Same thing, different compound: O=C1Nc2ccc(CCCl)cc2C1=Cc1ccnc2ccccc12 [10740/G03]
−2.0

Same thing, different compound: COc1ccc(C=C2C(=O)Nc3ccc(CCCl)cc32)cc1F [10737/G06]
12.8

Same thing, different compound: CCCCOc1ccc(C=C2C(=O)Nc3ccc(Br)c(C)c32)cc1 [10740/C11]
6.9

Same thing, different compound: CNS(=O)(=O)c1ccc2c(c1)C(=Cc1cnc3ccccc3c1)C(=O)N2 [10740/D02]
4.1

Same thing, different compound: Cc1c(Br)cc(Br)c2c1C(=Cc1ccc3ccccc3c1)C(=O)N2 [10737/H08]
10.0

Same thing, different compound: COc1ccc(C=C2C(=O)Nc3ccc(S(=O)(=O)N4CCOCC4)cc32)cc1F [10737/F06]
12.3

Same thing, different compound: O=C1Nc2ccc(CCCl)cc2C1=Cc1ccccc1F [10736/G08]
−0.1

Same thing, different compound: Cc1ccc(C)c(C=C2C(=O)Nc3ccc(S(=O)(=O)Nc4ccc(C(F)(F)F)cc4)cc32)c1 [10737/E07]
20.1

Same thing, different compound: Cc1c(Br)cc(Br)c2c1C(=Cc1cc(O)ccc1[N+](=O)[O-])C(=O)N2 [10738/H05]
−17.9
